- Test system: Plasmodium yoelii
- test.name: Antimalarial activity against Plasmodium yoelii MR4 MRA-428 infected in mouse CF1 assessed as dose required to achieve cure measured as 30 days survival administered through oral gavage once daily for 4 days
- Type: functional
readout: NRD

Q: Give the reported NRD for this molecule. `Cc1[nH]c2ccccc2c(=O)c1-c1ccc(Oc2ccc(OC(F)(F)F)cc2)cc1`
Ans: 3 mg/kg/day

Q: Provide NRD value for the following molecule: CCN(CC)CCCC(C)Nc1ccnc2cc(Cl)ccc12 (centres undefined)
Ans: >64 mg/kg/day

Q: Look up and report measured NRD for this entry: `Cc1[nH]c2ccc(Cl)cc2c(=O)c1-c1ccc(Oc2ccc(OC(F)(F)F)cc2)cc1`
Ans: >3 mg/kg/day

Q: Give the value of NRD reported for the following: `COc1cc2[nH]c(C)c(-c3ccc(Oc4ccc(Cl)cc4)cc3)c(=O)c2cc1Cl`
Ans: >0.3 mg/kg/day
